TEST NAME: Plasmodium falciparum growth inhibition, primary screen, strain 3D7, DAPI fluorescence, 100 nL (AID 1184);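 note: parasites grown inside human red blood cells in medium with human serum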
RUN CONDITIONS: P. falciparum 3D7 growth, 3 d, higher = more signal
MEASURED ENDPOINT: z-score
Please reply with the number alone, leaving off any unit.

Below: 3 molecules and their reported z-score.
{"columns": ["MOLECULE", "z-score"],
 "data": [
  ["CC1(C)[C@@H]2CC(C(O)C3C=CC4C(=O)N(Cc5ccccc5)C(=O)C4N3n3cnnc3)=C[C@H]1C2 (some centres undefined)", -0.101],
  ["O=C1C2C=CC(C(O)Cc3ccccc3)N(n3cnnc3)C2C(=O)N1Cc1ccccc1 (centres undefined)", -1.29],
  ["CCOC(=O)C[C@H]1[C@H](OC(=O)c2ccccc2-c2ccccc2)[C@@H](NC(=O)CC(C)C)c2cc(OCCCO)ccc2N1C(=O)Cc1ccc(OC)cc1", -0.106]
]}

Now consider a different molecule.
Answer with the recorded z-score of `CC(C)NC(=O)[C@@]1(C)c2ccccc2C(=O)N(Cc2cc(C(F)(F)F)cc(C(F)(F)F)c2)[C@H]1c1ccc(CO)cc1` only.
-1.54
